System: ORYSAT (Rice, Tebonnet)
Assay Info: Flooded paddy, post-transplant and postemergence rice tolerance
Type: in vivo, Oryza sativa, (L.) Tebonnet
Settings: 0.1250 kg/ha into flood water; post-transplant rice; rated 3-4 weeks after treatment
Record form. Attribute: herbicide rating (0-9) ORYSAT (rice tolerance). Fill in for each entry.
Please reply with the number alone, leaving off any unit.

Inquiry: Which herbicide rating (0-9) ORYSAT (rice tolerance) value is on record for Cn1c(C(F)(F)F)cc(=O)n(-c2cc3c(C4OCCO4)nsc3cc2F)c1=O ?
Reply text: 9.0

Inquiry: Likewise for Cc1cscc1-c1nsc2ccc(-n3c(=O)cc(C(F)(F)F)n(C)c3=O)cc12 ?
Reply text: 6.0

Inquiry: Likewise for Cc1cc(C)c(-c2nsc3ccc(-n4c(=O)cc(C(F)(F)F)n(C)c4=O)cc23)s1 ?
Reply text: 6.0

Inquiry: Likewise for Cn1c(C(F)(F)F)cc(=O)n(-c2ccc3snc(-c4ncccn4)c3c2)c1=O ?
Reply text: 2.0

Inquiry: Likewise for COC(=O)COc1ccsc1-c1nsc2ccc(-n3c(=O)cc(C(F)(F)F)n(C)c3=O)cc12 ?
Reply text: 0.0

Inquiry: Likewise for Cn1c(C(F)(F)F)cc(=O)n(-c2ccc3snc(-c4sccc4Cl)c3c2)c1=O ?
Reply text: 7.0

Inquiry: Likewise for Cn1c(C(F)(F)F)cc(=O)n(-c2ccc3snc(-c4nccs4)c3c2)c1=O ?
Reply text: 6.0

Inquiry: Likewise for Cc1ccc(-c2nsc3ccc(-n4c(=O)cc(C(F)(F)F)n(C)c4=O)cc23)s1 ?
Reply text: 7.0

Inquiry: Likewise for Cn1c(C(F)(F)F)cc(=O)n(-c2ccc3snc(C4OC(C)(C)C(C)(C)O4)c3c2)c1=O ?
Reply text: 9.0

Inquiry: Likewise for CCc1cc(-c2nsc3ccc(-n4c(=O)cc(C(F)(F)F)n(C)c4=O)cc23)c(CC)s1 ?
Reply text: 2.0

Inquiry: Likewise for Cn1c(C(F)(F)F)cc(=O)n(-c2ccc3snc(-c4ccsc4)c3c2)c1=O ?
Reply text: 7.0

Cited source: patent US6706663B2
